Value source: PubChem BioAssay (NCI)

Test system: IGROV1 ovarian
Assay: NCI tumour cell line growth inhibition, 48 h
Endpoint Name: TGI

> print(dat)
                            chemical.smiles  measured.target  endpoint.name  observed.value
1          CCCCc1c2c(nc3c1CCCC3=O)C(=O)CCC2   IGROV1 ovarian            TGI        > 100 µM
2  CC1=C(C(=O)Nc2ccc([N+](=O)[O-])cc2)C(c2cccc([N+](=O)[O-])c2)C(C(=O)Nc2ccc([N+](=O)[O-])cc2)=C(C)N1   IGROV1 ovarian            TGI        > 100 µM
3  COc1cc(CN[C@H]2CCc3cc(OC)c(OC)c(OC)c3-c3ccc(SC)c(=O)cc32)cc(OC)c1   IGROV1 ovarian            TGI        > 100 µM
4  CN(NC(=O)/C(=C/c1ccc(Cl)cc1)NC(=O)c1ccccc1)c1cn[nH]c(=O)c1Cl   IGROV1 ovarian            TGI        > 100 µM
